System: MCF 10A
Assay: Cisplatin cytotoxicity, 72 h, read with phenothiazinium dyes, NR or MTT
Assay type: cell-based, human
Details: indicator MTT
property measured: IC50 (µM)
Quick reminder: number only, in µM, skip the unit.

For N.N.[Cl][Pt][Cl] [cisplatin, cis-diammineplatinum (II) dichloride] on MCF 10A, measured IC50 was 11.9
